System: CCRIS mutagenicity, Ames/micronucleus/aberration tests
Assay details: CCRIS mutagenicity studies
Measurement context: Test System: AMES SALMONELLA TYPHIMURIUM; Strain/Indicator: TA1537; Metabolic Activation: NONE; Method: PREINCUBATION
Activity calls are given as the source filed them. How the calls were made is not given here.
Just give me one of these, please: active, inactive

What call does the record list for O=C(O)c1ccccc1[N+](=O)[O-] ?
inactive

What call does the record list for [O]=[Zr] ?
inactive

What call does the record list for C=CCOC(=O)CC(C)C ?
inactive

What call does the record list for CC(CN1c2ccccc2Sc2ccccc21)N(C)C (stereo not drawn) ?
inactive

What call does the record list for C=CCc1ccc(OC)cc1 ?
inactive

What call does the record list for [N-]=[N+]=[N-] ?
inactive

What call does the record list for CC(O)c1ccccc1 (stereo not drawn) ?
inactive

What call does the record list for CCNCC ?
inactive

What call does the record list for CC(C)(C)OOC(=O)c1ccccc1 ?
active

What call does the record list for Nc1ccccc1S ?
inactive

What call does the record list for Cl/C=C\Cl ?
inactive

What call does the record list for COc1cccc(N)c1 ?
inactive

What call does the record list for C=CCN(CC=C)CC=C ?
inactive

What call does the record list for Nc1cccc2nc3ccccc3cc12 ?
active

What call does the record list for Oc1ccc(Nc2ccc3ccccc3c2)cc1 ?
inactive

What call does the record list for Sc1ccccc1 ?
inactive

What call does the record list for CCCCCCCCC/C=C/CC1CC(=O)OC1=O (stereo not drawn) ?
inactive

What call does the record list for CC(C)CON=O ?
inactive

====

System: CCRIS mutagenicity, Ames/micronucleus/aberration tests
Assay details: CCRIS mutagenicity studies
Measurement context: Test System: AMES SALMONELLA TYPHIMURIUM; Strain/Indicator: TA1535; Metabolic Activation: RAT, LIVER, S-9; Method: STANDARD PLATE
The source made the active and inactive calls. How the calls were made is not given here.
Endpoint name: mutagenic call

Below: 5 compounds and their reported mutagenic call.
1) CN(C)C(=O)Nc1cccc(C(F)(F)F)c1 | active; positive
2) CN(CCCC(=O)c1cccnc1)N=O | inactive; negative
3) CCOCC(O)COc1ccc(NC(=O)CC[S+](C)C)cc1 (centres undefined) | inactive; negative
4) NC(=O)c1cc[n+](COC[n+]2ccccc2/C=N/O)cc1 | inactive; negative
5) OC[C@@H](O)[C@@H](O)CO | inactive; negative

Field request: mutagenic call | item: O=C(O)CN(CC(=O)O)CC(=O)O
inactive; negative

Field request: mutagenic call | item: Cc1cc(C)c(N)c(C)c1N
active; positive

Field request: mutagenic call | item: C[C@]12C=CC3=C4CCC(=O)C=C4CC[C@H]3[C@@H]1CC[C@@H]2O
inactive; negative

====

Tested on: CCRIS mutagenicity, Ames/micronucleus/aberration tests
Assay details: CCRIS mutagenicity studies
Measurement context: Test System: AMES SALMONELLA TYPHIMURIUM; Strain/Indicator: TA98; Metabolic Activation: RAT LIVER S-9, 3-METHYLCHOLANTHRENE, SODIUM PHENOBARBITAL; Method: STANDARD PLATE
Excerpt: The CCRIS database contains chemical records with carcinogenicity, mutagenicity, tumor promotion, and tumor inhibition test results. It was developed by the National Cancer Institute (NCI). Data are derived from studies cited in primary journals, current awareness tools, NCI reports, and other sources. Test results have been reviewed by experts in carcinogenesis and mutagenesis. CCRIS provides historical information from the years 1985 - 2011. It is no longer updated. […]
The source made the active and inactive calls. The rule behind the calls is not given here.
Just give me one of these, please: True (active), False (inactive)

What call does the record list for c1ccc(-c2nc(-c3ccccc3)c(-c3ccccc3)[nH]2)cc1 ?
False

What call does the record list for COc1ccc(-c2nc(-c3ccc(C)cc3)c(-c3ccc(C)cc3)[nH]2)cc1OC ?
False

What call does the record list for Cc1ccc(-c2nc(-c3ccc(C)cc3C)[nH]c2-c2ccc(C)cc2)cc1 ?
True

What call does the record list for COc1ccc(-c2nc(-c3ccccc3)c(-c3ccccc3)[nH]2)cc1 ?
False
